test.method.notes: Cmax in Sprague-Dawley rat serum at 10 mg/kg, po administered as single dose after 2 hrs
Format: ADME, organism-based
Set-up: dose 10 mg/kg, route oral
property.name: Cmax (ng/mL)

1) O=[N+]([O-])c1ccc(N2CCN(c3cccc(C(F)(F)F)c3)CC2)c(C(F)(F)F)c1 ... 139

====

test.method.notes: Tmax in Sprague-Dawley rat hypothalamus at 10 mg/kg, po administered as single dose after 1 hr
Assay type: ADME, organism-based
Set-up: dose 10 mg/kg, route oral
property.name: Tmax (h)

1) O=[N+]([O-])c1ccc(N2CCN(c3cccc(C(F)(F)F)c3)CC2)c(C(F)(F)F)c1 ... 1

====

System: Hypothalamus
test.method.notes: AUC (0 to t) in Sprague-Dawley rat hypothalamus at 10 mg/kg, po administered as single dose
Type: ADME, organism-based
Set-up: dose 10 mg/kg, route oral
conditions.used: in vivo
property.name: AUC

1) O=[N+]([O-])c1ccc(N2CCN(c3cccc(C(F)(F)F)c3)CC2)c(C(F)(F)F)c1 ... 2000 ng·h/g

====

test.method.notes: Cmax in Sprague-Dawley rat prostate gland at 10 mg/kg, po administered as single dose after 2 hrs
Assay type: ADME, organism-based
Design: dose 10 mg/kg, route oral
property.name: Cmax (ng/g)

1) O=[N+]([O-])c1ccc(N2CCN(c3cccc(C(F)(F)F)c3)CC2)c(C(F)(F)F)c1 ... 365

====

test.method.notes: Mean residence time in Sprague-Dawley rat prostate gland at 10 mg/kg, po administered as single dose
Format: ADME, organism-based
Design: dose 10 mg/kg, route oral
property.name: MRT (h)

1. O=[N+]([O-])c1ccc(N2CCN(c3cccc(C(F)(F)F)c3)CC2)c(C(F)(F)F)c1 ... 11

====

test.method.notes: Cmax in Sprague-Dawley rat serum at 10 mg/kg, po administered as single dose after 1 hr
Assay type: ADME, organism-based
Parameters: dose 10 mg/kg, route oral
property.name: Cmax

1. O=[N+]([O-])c1ccc(N2CCN(c3cccc(C(F)(F)F)c3)CC2)c(C(F)(F)F)c1 ... 106 ng/mL

====

test.method.notes: Cmax in Sprague-Dawley rat prostate gland at 10 mg/kg, po administered as single dose after 1 hr
Assay type: ADME, organism-based
Set-up: dose 10 mg/kg, route oral
property.name: Cmax (ng/g)

1. O=[N+]([O-])c1ccc(N2CCN(c3cccc(C(F)(F)F)c3)CC2)c(C(F)(F)F)c1 ... 442

====

test.method.notes: Tmax in Sprague-Dawley rat serum at 10 mg/kg, po administered as single dose after 2 hrs
Assay type: ADME, organism-based
Design: dose 10 mg/kg, route oral
property.name: Tmax (h)

1) O=[N+]([O-])c1ccc(N2CCN(c3cccc(C(F)(F)F)c3)CC2)c(C(F)(F)F)c1 ... 2

====

test.method.notes: Tmax in Sprague-Dawley rat hypothalamus at 10 mg/kg, po administered as single dose after 2 hrs
Format: ADME, organism-based
Set-up: dose 10 mg/kg, route oral
property.name: Tmax (h)

1) O=[N+]([O-])c1ccc(N2CCN(c3cccc(C(F)(F)F)c3)CC2)c(C(F)(F)F)c1 ... 2

====

test.method.notes: Tmax in Sprague-Dawley rat prostate gland at 10 mg/kg, po administered as single dose after 2 hrs
Assay type: ADME, organism-based
Design: dose 10 mg/kg, route oral
property.name: Tmax (h)

1) O=[N+]([O-])c1ccc(N2CCN(c3cccc(C(F)(F)F)c3)CC2)c(C(F)(F)F)c1 ... 6
